variants and their reported self-cleavage
B1: Osa-1-4 twister ribozyme (parent)
chain: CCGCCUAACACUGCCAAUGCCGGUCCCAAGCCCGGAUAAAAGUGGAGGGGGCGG

# Variants of: B1
# PROCEDURE_SUMMARY: self-cleavage, relative activity (ratio to wild type); higher = more cleavage; co-transcriptional
Answer using only a numeral; do not append any unit.

| VARIANT | NUMERIC_READOUT |
| --- | --- |
| A38C C25G | 0.06 |
| G35A U43G | 0.12 |
| A41G C26U | 0.17 |
| A40G C14A | 0.4 |
| C26A G51C | 0.02 |

Prompt: Name the recorded self-cleavage for C9G G13C .
Response: 0.03

Prompt: // lookup self-cleavage for A38G U43A
Response: 0.89

Prompt: Item G13A G42C has what recorded self-cleavage?
Response: 0.04

Prompt: Look up self-cleavage: A28G G48C
Response: 0.05

Prompt: What value of self-cleavage has been recorded for this entry: G23A G53U
Response: 0.11

Prompt: Could you tell me which self-cleavage is on file for G19C G45C ?
Response: 0.03

Prompt: Fill in the blank: the reported self-cleavage of C33A is ____.
Response: 0.28

Prompt: Please look up its self-cleavage: A7U C26U
Response: 0.07

Prompt: What value of self-cleavage has been recorded for this entry: C15A G51C
Response: 0.04

Prompt: GET /values?readout=self-cleavage&item= A16U A8C
Response: 0.06

Reference source: the RNAGym collection of RNA variant scans (doi:10.1002/anie.201605470)
